testedOn: human B1 receptor (Homo sapiens, UniProt P46663)
Construct: host or cells: CHO-K1
procedureText: Calcium flux assay (FLIPR) with recombinant CHO-K1 cells expressing human B1 receptor
Assay type: cell-based
testParameters: presence of 0.1% BSA in assay buffer, read-out: hB1 IC50
testReadout: IC50 (nM)

>>> print(df.to_string())
                                   compound  measuredvalue
0  CCOc1ccc(-c2cc(C)c(NC(=O)C3CC3C3CCCCC3)cc2-c2nnn[nH]2)cn1 (racemic)            247
1  COc1ccc(-c2ccc(NC(=O)C3CC3c3ccc(C)cc3)cc2-c2nnn[nH]2)cc1OC (racemic)             33
2  COc1ccc(-c2cc(F)c(NC(=O)C3CC3c3ccc(Cl)cc3)cc2-c2nnn[nH]2)cc1OC (racemic)             26

a. CCOc1ccc(-c2cc(O)c(NC(=O)C3CC3c3cccc(C)c3)cc2-c2nnn[nH]2)cn1 (racemic)
b. COc1ccc(-c2cc(F)c(NC(=O)C3CC3c3ccc(Cl)cc3)cc2-c2nnn[nH]2)cc1 (racemic)
// query Exercise: compare a and b ; which one has the greater IC50? Write the label of whichever entry you select.
// result b
(b: 134 nM, a: 11 nM)

---

testedOn: native human B1 receptors (Homo sapiens)
Construct: which express native human B1 receptors after induction with human IL-1; Coriell Institute
procedureText: Calcium flux assay (FLIPR) with IMR-90 human fibroblasts for Bradykinin B1 receptor antagonist
testParameters: IMR-90 human foetal lung fibroblasts after induction with human IL-1; 0.1% BSA in assay buffer; read-out: hB1 IC50 IMR90
testReadout: IC50 (µM)

In the examples that follow, each entry is paired with its recorded IC50.
>>> print(df.to_string())
                                   molecule  unitlabel  measuredvalue
0  COc1ccc(-c2cc(F)c(NC(=O)C3CC3c3cccc(C)c3)cc2-c2nnn[nH]2)cc1 (racemic)         µM          0.022
1  Cc1cccc(C2CC2C(=O)Nc2ccc(-c3ccc(OC(C)C)nc3)c(-c3nnn[nH]3)c2)c1 (racemic)         µM          0.009
2  CCOc1ccc(-c2ccc(NC(=O)C3CC3c3cccc(Cl)c3)cc2-c2nnn[nH]2)cn1 (racemic)         µM           0.01

1. COc1ccc(-c2ccc(NC(=O)C3CC3C3CCCCC3)cc2-c2nnn[nH]2)cc1OC (single isomer, unassigned)
2. CCOc1ccc(-c2cc(O)c(NC(=O)C3CC3c3cccc(C)c3)cc2-c2nnn[nH]2)cn1 (racemic)
3. CCOc1ccc(-c2ccc(NC(=O)C3CC3c3ccc(Cl)cc3)cc2-c2nnn[nH]2)cn1 (racemic)
4. Cc1cccc(C2CC2C(=O)Nc2cc(-c3nnn[nH]3)c(-c3ccc(C(F)(F)F)nc3)cc2O)c1 (racemic)
// query Sort these molecules on IC50 so the largest reading comes first. Answer format: list of labels, ordered as asked.
// result 4, 1, 3, 2

---

testedOn: human B1 receptor (Homo sapiens)
Construct: host or cells: CHO-K1
Sequence (P46663 1-353): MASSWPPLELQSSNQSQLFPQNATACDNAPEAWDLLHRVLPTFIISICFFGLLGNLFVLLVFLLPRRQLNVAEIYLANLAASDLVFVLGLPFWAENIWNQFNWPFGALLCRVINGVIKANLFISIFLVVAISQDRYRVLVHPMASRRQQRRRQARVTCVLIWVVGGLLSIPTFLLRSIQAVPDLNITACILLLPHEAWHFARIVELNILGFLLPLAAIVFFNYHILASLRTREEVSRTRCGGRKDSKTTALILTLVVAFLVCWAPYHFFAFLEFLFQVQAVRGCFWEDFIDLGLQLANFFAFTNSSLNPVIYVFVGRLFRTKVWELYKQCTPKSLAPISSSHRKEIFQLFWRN
procedureText: Calcium flux assay (FLIPR) with recombinant CHO-K1 cells expressing human B1 receptor
Format: cell-based
testParameters: presence of 0.1% BSA in assay buffer, read-out: hB1 IC50
testReadout: IC50 (nM)

>>> print(df.to_string())
                                   compound                          testedon  measuredvalue
0  CCOc1ccc(-c2ccc(NC(=O)C3CC3c3cnn(C)c3)cc2-c2nnn[nH]2)cn1 (racemic)  human B1 receptor (Homo sapiens)           4070

P. COc1ccc(-c2ccc(NC(=O)C3CC3C3CCCCC3)cc2-c2nnn[nH]2)cc1C (single isomer, unassigned)
Q. O=C(Nc1ccc(-c2ccc(C(F)(F)F)nc2)c(-c2nnn[nH]2)c1)C1CC1C1CCCCC1 (racemic)
R. COc1ccc(-c2cc(F)c(NC(=O)C3CC3c3cccc(C)c3)cc2-c2nnn[nH]2)cc1OC (racemic)
// query // ranking: key=IC50, reverse=True Reply with the item labels sorted in the order that was asked for.
// result Q, P, R
(Q: 3300 nM, P: 378 nM, R: 16 nM)
